- Test system: CD2F1 mice, L1210 leukemia ip, survival T/C
- ASSAY_SUMMARY: NCI In Vivo Anticancer Drug Screen. Data for tumor model L1210 Leukemia (intraperitoneal) in CD2F1 (CDF1) mice
- EXPERIMENTAL_PARAMETERS: endpoint: mean survival time; dose: 400.0 mg/kg/injection; schedule: Q01DX009 (ip); vehicle: saline with Tween-80; higher = longer survival
Inconclusive results and toxic doses are left out.
Reported T/C values follow for various compounds

>  <SMILES_ENTRY>
O=C(O)c1c(Cl)cc(Cl)c(-c2c(Cl)cc(Cl)c(C(=O)O)c2Cl)c1Cl

>  <T/C>
104 % of control

$$$$
>  <SMILES_ENTRY>
C=C(C)c1c2ccccc2cc2cccc(Sc3ccccc3)c12

>  <T/C>
95 % of control

$$$$
>  <SMILES_ENTRY>
Cc1c(C(=O)c2no[n+]([O-])c2C(=O)c2c(C)c([N+](=O)[O-])c(C)c([N+](=O)[O-])c2C)c(C)c([N+](=O)[O-])c(C)c1[N+](=O)[O-]

>  <T/C>
88 % of control

$$$$

Q: # query: T/C of entry `O=NN1Cc2ccccc2C1=O`
Ans: 94 % of control

Q: Can you share its T/C? I mean this compound: `C=CCCCCCCCCC(=O)NCCCC(OCC)OCC`
Ans: 98 % of control

* * *

- Test system: CD2F1 mice, L1210 leukemia ip, survival T/C
- ASSAY_SUMMARY: NCI In Vivo Anticancer Drug Screen. Data for tumor model L1210 Leukemia (intraperitoneal) in CD2F1 (CDF1) mice
- EXPERIMENTAL_PARAMETERS: endpoint: mean survival time; dose: 400.0 mg/kg/injection; schedule: Q04DX003 (ip); vehicle: Klucel (hydroxypropylcellulose) (HPC); higher = longer survival
Inconclusive results and toxic doses are left out.
MEASURE_NAME: T/C

Some solved entries appear below for comparison.
>  <COMPOUND>
O=C(COc1ccccc1)N(/N=C/c1ccccc1)C(=O)c1ccccc1

>  <ASSAYED_TARGET>
CD2F1 mice, L1210 leukemia ip, survival T/C

>  <T/C>
94 % of control

$$$$
>  <COMPOUND>
CC(=O)NN1C(=O)c2ccccc2C1=O

>  <ASSAYED_TARGET>
CD2F1 mice, L1210 leukemia ip, survival T/C

>  <T/C>
98 % of control

$$$$
>  <COMPOUND>
[O-][n+]1c2c(cc3ccccc31)Cc1ccccc1-2

>  <ASSAYED_TARGET>
CD2F1 mice, L1210 leukemia ip, survival T/C

>  <T/C>
93 % of control

$$$$
>  <COMPOUND>
CCC1CN2CCC1CC2C(O)c1cc[n+]([O-])c2ccc(OC)cc12 (configuration not stated)

>  <ASSAYED_TARGET>
CD2F1 mice, L1210 leukemia ip, survival T/C

>  <T/C>
102 % of control

$$$$
>  <COMPOUND>
CCOC(=O)CNC(=O)c1ccc(N(CCCl)CCCl)cc1

>  <ASSAYED_TARGET>
CD2F1 mice, L1210 leukemia ip, survival T/C

>  <T/C>
104 % of control

$$$$
>  <COMPOUND>
CC(=O)c1ccc(Cc2ccc(C(C)=O)cc2)cc1

>  <ASSAYED_TARGET>
CD2F1 mice, L1210 leukemia ip, survival T/C

>  <T/C>
97 % of control

$$$$

Please turn your attention to the following entry.
Q: Recorded T/C for `O=[N+]([O-])c1ccc(N/N=C/c2ccccn2)cc1` , please?
Ans: 94 % of control
